# System: genotype 1b (Con1) wild type transient HCV replicon in Huh-7-derived cells
# ASSAY INFO: Transient-transfected HCV replicon EC50, genotype 1b wild type
# Format: cell-based, hepatitis C virus
# MEASUREMENT PARAMETERS: transient-transfected replicon genotype 1b wild type, 72 h; read-out: EC50 1B WT
Lab note: anything with EC50 below 6 nM is marked y; values at 6 nM or higher are marked n.

Example entries and their recorded answers appear below.
COMPOUND: CC[C@@H]1[C@@H]2CN(C(=O)[C@H](C(C)(C)C)NC(=O)O[C@]3(C(F)(F)F)CCCC3CCCCCc3nc4ccc(OC)cc4nc3O2)[C@@H]1C(=O)N[C@]1(C(=O)NS(=O)(=O)C2(C)CC2)C[C@H]1C(F)F (stereo partly drawn)
TEST SYSTEM: genotype 1b (Con1) wild type transient HCV replicon in Huh-7-derived cells
ASSIGNED CATEGORY: y
//
COMPOUND: CC[C@@H]1[C@@H]2CN(C(=O)[C@H](C(C)(C)C)NC(=O)O[C@@H]3C[C@H]3CC/C=C/C(F)(F)c3nc4ccc(OC)cc4nc3O2)[C@@H]1C(=O)N[C@]1(C(=O)NS(=O)(=O)C2(C)CC2)C[C@H]1C(F)F
TEST SYSTEM: genotype 1b (Con1) wild type transient HCV replicon in Huh-7-derived cells
ASSIGNED CATEGORY: y
//
COMPOUND: CC[C@@H]1[C@@H]2CN(C(=O)[C@H](C(C)(C)C)NC(=O)O[C@@]3(C(F)(F)F)CCC[C@H]3CCCCCc3nc4ccc(OC)cc4nc3O2)[C@@H]1C(=O)N[C@]1(C(=O)NS(=O)(=O)C2CC2)C[C@H]1C(F)F
TEST SYSTEM: genotype 1b (Con1) wild type transient HCV replicon in Huh-7-derived cells
ASSIGNED CATEGORY: y
//
COMPOUND: CC[C@@H]1[C@@H]2CN(C(=O)[C@H](C(C)(C)C)NC(=O)O[C@]3(C(F)(F)F)CCC[C@H]3CCCCCc3nc4ccc(OC)cc4nc3O2)[C@@H]1C(=O)N[C@]1(C(=O)NS(=O)(=O)C2CC2)C[C@H]1C(F)F
TEST SYSTEM: genotype 1b (Con1) wild type transient HCV replicon in Huh-7-derived cells
ASSIGNED CATEGORY: n
//
COMPOUND: COc1ccc2nc3c(nc2c1)O[C@H]1CN(C(=O)[C@H](C(C)(C)C)NC(=O)O[C@@H]2C[C@H]2CCCCC3)[C@H](C(=O)N[C@]2(C(=O)NS(=O)(=O)C3(C)CC3)C[C@H]2C(F)F)[C@@H]1C1CC1
TEST SYSTEM: genotype 1b (Con1) wild type transient HCV replicon in Huh-7-derived cells
ASSIGNED CATEGORY: n

Please turn your attention to the following entry.
[Q] For CC[C@@H]1[C@@H]2CN(C(=O)[C@H](C(C)(C)C)NC(=O)O[C@@]3(C(F)(F)F)CCCC3CCCCCc3nc4ccc(OC)cc4nc3O2)[C@@H]1C(=O)N[C@]1(C(=O)NS(=O)(=O)C2(C)CC2)C[C@H]1C(F)F (stereo partly drawn) , is the recorded EC50 below the cut-off of 6 nM?
[A] n
